These entries and their values trace back to PubChem BioAssay.

Experiment: basal S. cerevisiae growth modulation, no modifier, primary screen, OD600, strain BY4716, 24 h, basal condition (AID 1173)
Conditions: OD600, 24 h, higher = more signal, called active from +8 up or from −8 down

{"molecule": "C=C(COC)/C(=C/C[C@H](OC(=O)c1ccncc1)c1cccc(OCCO)c1)c1cnc2ccccc2c1", "z-score": 0.14}
{"molecule": "COCC(=C=CC[C@@H](O)c1cccc(OCCO)c1)C[C@@H](O)COCc1ccccc1", "z-score": -0.353}
{"molecule": "COc1cc2c(cc1O)C(C1CC1)N(Cc1ccc([N+](=O)[O-])o1)CC2 (stereo not given)", "z-score": -1.49}
{"molecule": "COC(=O)[C@@]1(CCC(=O)OC(C)(C)C)N=C(c2ccc(OCCCO)cc2)O[C@H]1c1ccccc1CN=[N+]=[N-]", "z-score": 0.696}
{"molecule": "COCCOC(=O)N1C(=O)[C@@]2(c3cc(C#CCC(C(=O)OC)C(=O)OC)ccc31)[C@H](C(=O)N1CCc3cc(OC)c(OC)cc3C1)[C@H]1C(=O)O[C@H](c3ccccc3)[C@H](c3ccccc3)N1[C@@H]2c1ccc(O)cc1", "z-score": 0.541}
{"molecule": "C=C(COC)C(=O)CC[C@@H](OC(C)=O)c1ccc(OCCO)cc1", "z-score": -0.997}
{"molecule": "C=CCC(OC(C)=O)[C@@H]1[C@@H](N(Cc2cc3ccccc3o2)C(=O)c2cccc3ccccc23)c2cc(OCCCO)ccc2N1C(=O)c1ccc2ccccc2c1 (stereo not given in full)", "z-score": -0.469}
{"molecule": "CC(C)CNC(=O)[C@@H]1c2ccccc2C(=O)N(CC23CC4CC(CC(C4)C2)C3)[C@H]1c1ccc(CO)cc1", "z-score": -1.17}
{"molecule": "CCCC[C@@H]1C[C@H]1[C@@H](NC(=O)c1ccc(C(F)(F)F)cc1)c1ccc(C(=O)OC)cc1", "z-score": 0.146}
{"molecule": "N#Cc1ccc(C(O)C2C=CC3C(=O)NC(=O)C3N2Nc2ccccn2)cc1 (stereo not given)", "z-score": -0.055}
